system: HEK-293T; assay: Multiplex assay against HEK293T; type: toxicity, cell-based; conditions: human, 12 h, 1 µM, compound concentration 1 uM, replicate 2
quantity kind: Total Cell Count
Write no unit; give the number alone.

Before answering, review these 10 worked examples.
1. COc1cc(-n2cnc3cc(-c4ccc(Cl)cc4)sc3c2=O)ccc1OCCN1CCCC1 :: 265
2. CC(C)(O)CNc1ncc(-c2ccnc(Nc3ccnc(Cl)c3)n2)c(CC2CC2)n1 :: 133
3. O=C1NCN(c2ccccc2)C12CCN(CCCOc1ccc(F)cc1)CC2 [SPIRAMIDE] :: 179
4. Cn1cc(-c2[nH]c3cc(NC(=O)[C@H](N)C4CCCCC4)cc4c3c2C=NNC4=O)cn1 :: 259
5. C=CC(=O)Nc1cccc(C(=O)Nc2ccc(Nc3cc(-c4[nH]c(SC)nc4C)ccn3)cc2)c1 :: 190
6. OC1(c2ccc(Cl)cc2)CCN(Cc2c[nH]c3ccccc23)CC1 :: 136
7. CCN(CC)CCCCNc1ncc2cc(-c3cc(OC)cc(OC)c3)c(NC(=O)NC(C)(C)C)nc2n1 [PD-173074] :: 917
8. Cl.N#Cc1ccc2[nH]cc(CCCCN3CCN(c4ccc5oc(C(N)=O)cc5c4)CC3)c2c1 [VILAZODONE HYDROCHLORIDE] :: 138
9. CN(C)C(=O)N[C@H]1CC[C@H](CCN2CCN(c3cccc(Cl)c3Cl)CC2)CC1.Cl [CARIPRAZINE HYDROCHLORIDE] :: 213
10. C=CC(=O)Nc1ccc2ncnc(Nc3ccc(OCc4cccc(F)c4)c(Cl)c3)c2c1.Cc1ccc(S(=O)(=O)O)cc1 :: 226

[Q] Could you share which Total Cell Count value was measured for CN1CCCC(n2nc(Cc3ccc(Cl)cc3)c3ccccc3c2=O)CC1.Cl (configuration not stated) [AZELASTINE HYDROCHLORIDE] ?
[A] 190

[Q] If you can, please state the reported Total Cell Count value of CC[C@H](C)C(=O)O[C@H]1C[C@@H](C)C=C2C=C[C@H](C)[C@H](CC[C@@H]3C[C@@H](O)CC(=O)O3)[C@H]21 [LOVASTATIN] .
[A] 227

[Q] May I ask what Total Cell Count has been recorded for Cc1nc(-c2ccc(-c3ccc(C(=O)N4CCc5cc6c(cc54)C4(CCN(C)CC4)CO6)cc3)c(C)c2)no1 [SB-224289] ?
[A] 194

[Q] What does the data say about its Total Cell Count? Entry: NC(=O)Nc1cc(-c2cccc(F)c2)sc1C(=O)N[C@H]1CCCNC1 [AZD-7762]
[A] 1132

[Q] Quick one: Total Cell Count of Cc1c(-c2ccc(O)cc2)n(Cc2ccc(OCCN3CCCCCC3)cc2)c2ccc(O)cc12 [BAZEDOXIFENE] ?
[A] 168

[Q] Consider the compound C[C@@H](NCCCc1cccc(C(F)(F)F)c1)c1cccc2ccccc12.Cl [CINACALCET HYDROCHLORIDE] and give its measured Total Cell Count.
[A] 158

[Q] Could you tell me which Total Cell Count is on file for CC(C)NCC(O)COc1ccc(CCOCC2CC2)cc1.Cl (configuration not stated) [BETAXOLOL HYDROCHLORIDE] ?
[A] 227

From: ChEMBL document CHEMBL4689842
